Assay: qHTS assay to test for compound auto fluorescence at 535 nm (green) in HepG2 cells (AID 720675); note: % is set by controls: 0 for no effect and ±100 for the full control effect
Settings: green autofluorescence 485/535 nm, 1 h; series mostly up to 91.3 µM
Calls of active or inactive are those of the source. Calls come from the whole dose curve; as a rule, active = well fitted curve in the direction sought with a large enough effect in the repeat runs; inconclusive = weak or mixed curves; inactive = flat fitted curve, though single readings scatter.
Quantity Measured: fluorescence, % of fluorescein control

Guide cases for fluorescence, % of fluorescein control, answers given:
{"columns": ["Compound", "fluorescence, % of fluorescein control"],
 "data": [
  ["O=C(O)c1ccccc1C(=O)Nc1ccc(S(=O)(=O)Nc2nccs2)cc1", "inactive"],
  ["CC(=O)Nc1ncc([N+](=O)[O-])s1", "inactive"],
  ["C1CCN2C[C@@H]3C[C@@H](CN4CCCC[C@@H]34)[C@H]2C1", "-0.0003% [at 18.6 µM] (inactive)"],
  ["CNC(=O)C(c1ccccc1)c1ccccc1", "inactive"],
  ["COc1cc([N+](=O)[O-])ccc1N", "inactive"]
]}

Could you tell me fluorescence, % of fluorescein control for each of these compounds? They are listed below.
1. CCN(Cc1cccc(S(=O)(=O)O)c1)c1ccccc1
2. F[Si-2](F)(F)(F)(F)F
3. CCCO
4. CC(=O)OCCCc1ccccc1
5. C/C=C(\C)C(=O)OCC/C=C\CC
6. O=C(COCCOCCOCC(=O)Nc1c(I)cc(I)c(C(=O)O)c1I)Nc1c(I)cc(I)c(C(=O)O)c1I
7. C=CC(C)(O)CC/C=C(\C)CC (configuration not stated)
8. Nc1ccnc(=O)[nH]1

OUTPUT:
inactive
inactive
inactive
inactive
inactive
inactive
inactive
inactive

Count: 5. Required value per item: fluorescence, % of fluorescein control.
1. C=C(C)C(=O)OC1CC(C)CC(C)(C)C1 (configuration not stated)
2. COC(OC)C(C)c1ccccc1 (configuration not stated)
3. CCNC(=O)/C=C/c1cccc(Br)c1
4. COC(/C=C(\C)CCC=C(C)C)OC
5. CCC(=O)c1ccc(O)cc1

OUTPUT:
1: inactive; 2: inactive; 3: inactive; 4: inactive; 5: inactive

Hey, can you go through the list below and give me fluorescence, % of fluorescein control for every item?
1. O=C(O)c1c(Cl)ccc(Cl)c1Cl
2. NS(=O)(=O)c1ccc(Cl)c(S(N)(=O)=O)c1
3. C=CCOCC(O)CCl (configuration not stated)
4. CC(Cl)COP(=O)(OCC(C)Cl)OCC(C)Cl (configuration not stated)

OUTPUT:
1: inactive; 2: inactive; 3: inactive; 4: inactive

====

Assay: qHTS assay to identify small molecule agonists of the progesterone receptor (PR) signaling pathway - cell viability counter screen (AID 1346799); note: % is set by controls: 0 for no effect and ±100 for the full control effect; nearly all actives have a fitted effect of over 45% in size
Details: PR-UAS-bla HEK293T viability, CellTiter-Glo luminescence, 16 h; series mostly up to 92.4 µM
Excerpt: National Center for Advancing Translational Sciences [NCATS] NIH Chemical Genomics Center [NCGC] U.S. Environmental Protection Agency [EPA] National Institutes of Environmental Health Sciences [NIEHS] National Toxicology Program [NTP] U.S. Food and Drug Administration [FDA] Progesterone receptor (PR), a nuclear hormone receptor, plays an important role in development, metabolic homeostasis and reproduction. It is activated by the steroid hormone progesterone. […]
Inconclusive results are not listed. Calls of active or inactive are those of the source. The call rests on the fitted dose curve.
Quantity Measured: activity change, negative = cytotoxicity

{"columns": ["Compound", "activity change, negative = cytotoxicity"],
 "data": [
  ["C=C(C)C(=O)OC", "inactive"],
  ["Cc1cccc(NC(=S)N(C)C)c1", "inactive"],
  ["CC(C)CCO", "inactive"],
  ["C=CCOCC(O)CCl (configuration not stated)", "inactive"],
  ["Nc1ccc(S(=O)(=O)Nc2ccccn2)cc1", "inactive"],
  ["C=CCOCC(CO)(COCC=C)COCC=C", "inactive"],
  ["C[C@H]1O[C@H](O[C@H]2[C@H](O)[C@@H](O)[C@@H](O[C@H]3[C@H](O)[C@@H](O)[C@H](O)O[C@@H]3CO)O[C@@H]2CO)[C@H](O)[C@@H](O)[C@@H]1N[C@H]1C=C(CO)[C@@H](O)[C@H](O)[C@H]1O", "inactive"],
  ["C=C(C)C(=O)OC1CC(C)CC(C)(C)C1 (configuration not stated)", "inactive"]
]}

Below is a list of compounds. For each, state its recorded activity change, negative = cytotoxicity.
1. SCCSCCS
2. CCOC(=O)CCCCCCCCC(=O)OCC
3. Cc1cc(O)c2c(c1)C(=O)c1cccc(O)c1C2=O
4. CC1=NN(c2ccc(S(=O)(=O)O)cc2)C(=O)C1N=Nc1ccccc1 (configuration not stated)

OUTPUT:
["inactive", "inactive", "inactive", "inactive"]

Data provenance is PubChem BioAssay (Tox21).
